Test: in vivo
Design: species or system rat
Details: rat, tumor, iv; 4 h; read-out: Tumor uptake
Quantity: tissue uptake at 4 h (%ID/g)
Give the number; %ID/g is assumed, so skip it.

Input: Give tissue uptake at 4 h for CCN(CC)CCOc1ccc(/C(=C(/CCC[18F])c2ccccc2)c2ccccc2)cc1 [[^18 F]FTX]
Output: 0.284

###

Assay: in vivo
Set-up: species or system rat
Conditions: rat, lung, iv; 1 h; read-out: Lung uptake
Quantity: tissue uptake at 1 h (%ID/g)
Give the number; %ID/g is assumed, so skip it.

Input: Give tissue uptake at 1 h for CCN(CC)CCOc1ccc(/C(=C(/CCC[131I])c2ccccc2)c2ccccc2)cc1
Output: 3.95
